System: RPMI-8226
Method description: NCI tumour cell line growth inhibition, 48 h
The source made the active and inactive calls. No stated cut-off is given here; in the data, active = GI50 up to about 1.1 µM and inactive = higher. *1 amine or outer side, *2 acyl side, *3 side chain or, on linkers, in order; H or OH if unused. Where a SMILES comes first, the peptide text is derived from it. Bridges are numbered along the chain shown (N, C = ends). Roman numbers before positions name the chains, in order. [ ]: non-standard residue; d: D form. Actinocin(9to1) = Cc1c2oc3c(C)ccc(C(=O)[*:1])c3nc-2c(C(=O)[*:2])c(N)c1=O; NMeV = CN[CH](C(=O)O)C(C)C; Sar = CNCC(=O)O
Hi! Could you answer with just one of these? yes (1) for active, no (0) for inactive

Example results:
CCCOc1ccc(/C=C/c2cc(OC)c(OC)c(OC)c2)cc1 ... yes (1)
CC(C)CC(NC(=O)OC(C)(C)C)C(=O)Nc1ccc(Nc2nc(F)nc(-c3c4ccccc4cn3C)n2)cc1 (stereo not drawn) ... no (0)
O=C1O[C@H]2C3C4CCC(C4[C@@H]2I)[C@H]13 (stereo partly drawn) ... no (0)
CSc1nc(NC2OC(COC(C)=O)C(OC(C)=O)C(OC(C)=O)C2OC(C)=O)c(/N=C(\C)C(C)=O)c(=O)n1C (stereo not drawn) ... no (0)
Cc1ccccc1NC(=O)CSc1nnc(Cc2ccccc2)o1 ... no (0)
CN(C)NC(=O)/C(=C/c1ccc(Cl)cc1)NC(=O)c1ccccc1 ... no (0)
c1ccc2c(c1)nnn2CNc1ccc(N2CCCCC2)cc1 ... no (0)
Cc1c2oc3c(C)ccc(C(=O)NC4C(=O)NC(C(C)O)C(=O)N5CCCC5C(=O)N(C)CC(=O)N(C)C(C(C)C)C(=O)OC4C)c3nc-2c(C(=O)NC2C(=O)NC(C(C)O)C(=O)N3CCCC3C(=O)N(C)CC(=O)N(C)C(C(C)C)C(=O)OC2C)c(N)c1=O (stereo not drawn) (I: TTP[Sar][NMeV] / II: TTP[Sar][NMeV]; ester I:1-I:C, II:1-II:C; linker I:N-II:N via Actinocin(9to1); configuration not given here) ... yes (1)
CC(C)(C)c1cc(/C=C2/NC(=O)NC2=O)cc(C(C)(C)C)c1O ... no (0)
N#CCCN(CCN(CCC#N)C(=O)Nc1ccccc1)C(=O)Nc1ccccc1 ... no (0)

Shift focus to the following entry.
Data request: Which outcome did this test record for the compound "O=C(/C=C/c1ccc(Cl)c(Cl)c1)c1cccc2ccccc12" ?
Data returned: no (0)

###

Exercise: state measured GI50 for each of the molecules provided.
Test system: HCC 2998
Method description: NCI tumour cell line growth inhibition, 48 h
The source made the active and inactive calls. Cut-off read from the data, not from the text of the source: active = GI50 up to about 1.1 µM and inactive = higher.

For orientation, consider the following solved cases.
O=P(O)(O)CC1OC(CO)C(O)C1O (stereo not given) ... > 100 µM (inactive)
N#CCCN(CCN(CCC#N)C(=O)Nc1ccccc1)C(=O)Nc1ccccc1 ... > 100 µM (inactive)

Can you give me GI50 for all of these, one by one?
1. c1ccc2c(c1)nnn2CNc1ccc(N2CCCCC2)cc1
2. OC1(CCc2ccccc2)COC(C(F)(F)F)(C(F)(F)F)C1 (stereo not given)
3. O=C(/C=C/c1ccc(OCCSCCCCCCCCCCSCCOc2ccc(/C=C/C(=O)c3ccc(Cl)cc3)cc2)cc1)c1ccc(Cl)cc1
4. CCOc1cc(C2SCC(=O)N2c2ccc3c(c2)Oc2c(Cl)c4c(c(Cl)c2=N3)Oc2cc(N3C(=O)CSC3c3ccc(O)c(OCC)c3)ccc2N=4)ccc1O (stereo not given)
5. c1ccc(/N=C(\N2CCCCC2)N(CCN2CCCCC2)c2ccccc2)cc1
6. CC(C)(C)[C@H]1NC(=O)CN1C(=O)OCc1ccccc1
7. COc1ccc2c(c1)OC[C@@H]1c3cc(O)c(OCc4ccccc4)cc3O[C@H]21
8. O=C(N/C(=C\c1ccc(Oc2ccc(Cl)c(Cl)c2)cc1)c1nc2ccccc2[nH]1)c1ccccc1

Data returned:
> 100 µM (inactive)
> 100 µM (inactive)
> 100 µM (inactive)
21.9 µM (inactive)
1.69 µM (inactive)
> 100 µM (inactive)
36.2 µM (inactive)
16.4 µM (inactive)

###

Test system: TK-10
Method description: NCI tumour cell line growth inhibition, 48 h
Calls of active or inactive are those of the source. No stated cut-off is given here; in the data, active = GI50 up to about 1.1 µM and inactive = higher.
Observation type: GI50

Can you give me GI50 for all of these, one by one?
1. Cc1ccc(O)c(C(c2ccc([N+](=O)[O-])cc2)c2cc(C)ccc2O)c1
2. NCc1ccc(C(=O)O)cc1
3. Cc1c2cc[n+](C)cc2c(C)c2c1[nH]c1ccccc12
4. COc1nc2c(N3CCCC3)nc(N3CCNCC3)nc2nc1NCc1ccccc1
5. O=C(/C=C/c1ccc(OCCSCCCCCCCCCCSCCOc2ccc(/C=C/C(=O)c3ccc(Cl)cc3)cc2)cc1)c1ccc(Cl)cc1
6. CC(=O)OCC1OC(n2c(=O)[nH]c(=O)c3nn[nH]c32)C(OC(C)=O)C(OC(C)=O)C1OC(C)=O (stereo not given)

Data returned:
1. 16.3 µM (inactive)
2. > 100 µM (inactive)
3. 27.2 µM (inactive)
4. 1.76 µM (inactive)
5. > 100 µM (inactive)
6. > 100 µM (inactive)

###

Tested on: A498
Method description: NCI tumour cell line growth inhibition, 48 h
Activity calls are given as the source filed them. No stated cut-off is given here; in the data, active = GI50 up to about 1.1 µM and inactive = higher.
Observation type: GI50

For orientation, consider the following solved cases.
CSC1(SC)N2Cc3ccccc3N=C2C1(c1ccccc1)c1ccccc1 ... 15.7 µM (inactive)
O=C(O)c1nc2cc(Cl)ccc2[nH]c1=O ... > 100 µM (inactive)
COC(=O)CCC(C)[C@H]1CCC2C3C(C[C@H](OC(C)=O)[C@@]21C)[C@@]1(C)CCC2(C[C@H]1C[C@H]3OC(C)=O)OOC1(CCCC1)OO2 (stereo partly specified) ... > 100 µM (inactive)

Can you give me GI50 for all of these, one by one?
1. COc1cc(C2(C)SCCCS2)cc(OC)c1OC
2. COC(=O)CC1(O)C(/C=C/c2ccccc2)C(C(=O)OC)C(=O)C(C(=O)OC)C1C(=O)OC (stereo unspecified)
3. COC1OC2COC1(OC)C1OC(C)(C)OC21 (stereo unspecified)

Data returned:
> 100 µM (inactive)
> 100 µM (inactive)
> 100 µM (inactive)

###

What follows is a collection of log10(GI50) values obtained with HCT-15.
Note the log scale: values are log10 of GI50 expressed in µM.

For orientation, consider the following solved cases.
COc1ccc(CC2COc3cc(O)cc(O)c3C2=O)cc1O (centres undefined) ... 0.50
N/C(=N\O)N/N=C/c1cc2c(cc1Cl)OCO2 ... 1.14
O=C(O)C12C3CCC(C3)C1(C(=O)O)C1CCC2C1 (centres undefined) ... 1.60
C/C(=N/OC(=O)c1cccc2c(=O)c3ccccc3[nH]c12)[C@H]1CC[C@H]2[C@@H]3CCC4=C/C(=N/OC(=O)c5cccc6c(=O)c7ccccc7[nH]c56)CC[C@]4(C)[C@H]3CC[C@]12C ... 1.15
CNC(C)Cc1ccccc1O (centres undefined) ... 0.94

Can you give me log10(GI50) for all of these, one by one?
1. CC1(C)OC2OC(COC(=O)C(c3ccccc3)c3ccccc3)C3OC(C)(C)OC3C2O1 (centres undefined)
2. Cc1ccc(C2(O)c3ccccc3C(=O)N(C)C2(O)c2ccc(C)cc2)cc1 (centres undefined)
3. COC(=O)C1=Cc2cc(OC)c(OC)cc2[C@H](c2ccc(OC)c(OC)c2)C1C(=O)OC (some centres undefined)
4. Cc1oc2c(Cl)cc(O)c(Cl)c2c2cccc1-2
5. O=C(CCCN1CCC(C(O)c2ccc(F)cc2)CC1)c1ccc(F)cc1 (centres undefined)

Data returned:
[0.83, 1.72, 1.88, 1.33, 1.79]

###

Tested on: HL-60
Method description: NCI tumour cell line growth inhibition, 48 h
Activity calls are given as the source filed them. Rule as the data show it: active = GI50 up to about 1.1 µM and inactive = higher.
Hi! Could you answer with just one of these? active, inactive

Example results:
O=C1/C(=C/c2ccc([N+](=O)[O-])cc2)Sc2scc(-c3cccc([N+](=O)[O-])c3)[n+]21 ... active
C[C@]12CC[C@H](O)C=C1CC[C@@H]1[C@@H]2CC[C@]2(C)C(=N/O)/C(=C/c3ccncc3)C[C@@H]12 ... active

Data request: Which outcome did this test record for the compound O=c1/c(=C\c2ccccc2)sc2n1C(c1ccccc1)C1(O)CCCCC1N=2 (centres undefined) ?
Data returned: inactive

Data request: Request: c1ccc2c(c1)OC(N1CCCC1)c1cnc(N3CCOCC3)nc1-2 (centres undefined)
Data returned: inactive

Data request: Request: COc1cc2ccnc3c2c(c1OC)CC1CC(O)C(OC)CC31 (centres undefined)
Data returned: inactive

###

Exercise: state measured GI50 for each of the compounds provided.
System: SR
Method description: NCI tumour cell line growth inhibition, 48 h
Active and inactive are the calls of the source. No stated cut-off is given here; in the data, active = GI50 up to about 1.1 µM and inactive = higher.

For orientation, consider the following solved cases.
Cc1cccc(N2C(=O)/C(=C/c3ccc(N(CCC#N)CCC#N)cc3C)N=C2c2cc([N+](=O)[O-])ccc2Cl)c1 ... > 100 µM (inactive)
COC(=O)C(C)(C)[C@@H]1OC(=O)N(S(=O)(=O)c2c(C)cc(C)cc2C)[C@H]1C(C)C ... 75.7 µM (inactive)
CN(C(=O)C12C3C4C1C1C2C3C41C(N)=O)C(C)(C)C (stereo not given) ... > 100 µM (inactive)
CCNC1CC(C(C)(C)NCC)CC=C1C (stereo not given) ... > 100 µM (inactive)
CCC(CC)n1c(C)nc2c1C(=O)c1ccccc1C2=O ... 25.8 µM (inactive)
Cc1ccc(C(=O)C(C)N)cc1 (stereo not given) ... > 100 µM (inactive)

Can you give me GI50 for all of these, one by one?
1. C[C@]12CC[C@H](O)C=C1CC[C@@H]1[C@@H]2CC[C@]2(C)C(=N/O)/C(=C/c3ccncc3)C[C@@H]12
2. CCOC(=O)c1ccc(Nc2nc3ccccc3nc2C(=O)OCC)cc1

Data returned:
["3.4 µM (inactive)", "> 100 µM (inactive)"]

Can you give me GI50 for all of these, one by one?
1. COc1cc(OC)c(OC)cc1/C=N/N=C(\N)NO
2. COc1ccc(P2(=S)OC(C)(C)C(C)(C)O2)cc1

Data returned:
1. > 100 µM (inactive)
2. > 100 µM (inactive)
